- System: Serum
- RUN DESCRIPTION: Drug level in human serum
- Type: ADME, cell-free
- CONDITION: read-out: Drug uptake
ENDPOINT NAME: concentration

• CC(C)COCC(CN(Cc1ccccc1)c1ccccc1)N1CCCC1 (configuration not stated) = 6.8 µM

Now look at this entry.
What the record says about `CCCCc1oc2ccccc2c1C(=O)c1cc(I)c(OCCN(CC)CC)c(I)c1` : concentration is 3.75 µM

----------
- MEASURED ON: Lethal factor (Bacillus anthracis) (UniProt P15917)
- Sequence (P15917 whole entry): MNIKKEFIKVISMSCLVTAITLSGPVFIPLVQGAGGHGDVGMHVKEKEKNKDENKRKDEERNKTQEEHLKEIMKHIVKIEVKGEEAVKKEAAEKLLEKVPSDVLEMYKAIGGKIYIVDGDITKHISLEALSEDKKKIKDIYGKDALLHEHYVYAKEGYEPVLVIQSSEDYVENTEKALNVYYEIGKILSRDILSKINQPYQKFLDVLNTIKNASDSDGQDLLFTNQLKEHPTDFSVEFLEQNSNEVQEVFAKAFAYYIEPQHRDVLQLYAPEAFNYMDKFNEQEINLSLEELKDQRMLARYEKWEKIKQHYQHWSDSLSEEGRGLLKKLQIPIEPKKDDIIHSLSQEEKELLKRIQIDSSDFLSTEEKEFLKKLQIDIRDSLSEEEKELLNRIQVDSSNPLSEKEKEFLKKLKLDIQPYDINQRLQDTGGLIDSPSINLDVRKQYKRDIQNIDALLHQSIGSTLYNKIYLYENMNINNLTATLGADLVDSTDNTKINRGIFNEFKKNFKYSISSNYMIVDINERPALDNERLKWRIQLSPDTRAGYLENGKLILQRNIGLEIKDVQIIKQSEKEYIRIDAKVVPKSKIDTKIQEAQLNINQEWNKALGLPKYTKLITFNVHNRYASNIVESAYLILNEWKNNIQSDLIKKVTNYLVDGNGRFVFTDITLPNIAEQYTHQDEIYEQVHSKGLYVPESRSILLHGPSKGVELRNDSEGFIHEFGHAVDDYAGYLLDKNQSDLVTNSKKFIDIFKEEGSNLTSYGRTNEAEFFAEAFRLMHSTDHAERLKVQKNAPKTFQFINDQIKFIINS
- RUN DESCRIPTION: Protection against Bacillus anthracis lethal toxin-mediated cytotoxicity in mouse RAW264.7 cells assessed as change in viability at 0.125 to 12.5 uM relative to toxin-treated control
- Assay type: cell-based
MET if fold change (FC) is below 3. NOT MET if not; exact matches included in NOT MET.

Consider the following illustrative entries.
• N=C(NC(=O)c1nc(Cl)c(N)nc1N)Nc1ccccc1 = MET
• N[C@@H](COP(=O)(O)O)C(=O)O = MET
• CCCCCCCCCCCCCCCCOC[C@@H](COP(=O)([O-])OCC[N+](C)(C)C)OC(C)=O = NOT MET
• C1CCC(/N=C(\NC23CC4CC(CC(C4)C2)C3)N2CCOCC2)CC1 = NOT MET

Next up:
Ask | Dear colleague, could you confirm whether fold change (FC) of CCCNCC(O)COc1ccccc1C(=O)CCc1ccccc1 (stereo unspecified) falls below 3? Thanks.
Reply | NOT MET

----------
- Tested on: Plasmodium falciparum
- RUN DESCRIPTION: Antimalarial activity against Plasmodium falciparum
- Format: functional, organism-based
ENDPOINT NAME: pIC50
Lab note: report pIC50 as minus log10 of the concentration in molar units, number only.

What the record says about CC(C)COCC(CN(Cc1ccccc1)c1ccccc1)N1CCCC1 (stereo unspecified) : pIC50 is 5.60

----------
- MEASURED ON: Lethal factor (Bacillus anthracis) (UniProt P15917)
- RUN DESCRIPTION: Protection against Bacillus anthracis lethal toxin-mediated cytotoxicity in mouse RAW264.7 cells assessed as change in viability at 0.125 to 12.5 uM relative to toxin-treated control
- Format: cell-based
ENDPOINT NAME: fold change (FC)
Kindly provide the number alone.

• CC1(C)CCC(C)(C)c2cc(C(=O)Nc3ccc(C(=O)O)cc3)ccc21 = 3.9
• O=c1[nH]c2cc(C(F)(F)F)ccc2n1-c1cc(C(F)(F)F)ccc1O = 2.8
• O=S(=O)(NCCNC/C=C/c1ccc(Br)cc1)c1cccc2cnccc12 = 2.9
• CC1=C(/C=C/C(C)=C/C=C/C(C)=C\C(=O)O)C(C)(C)CCC1 = 3.2
• CC1=C(/C=C/C(C)=C\C=C\C(C)=C\C(=O)O)C(C)(C)CCC1 = 2.6

What the record says about `CC1(C)Oc2ccc(C#N)cc2[C@@H](OC2=CC(=O)CC2)[C@@H]1O` : fold change (FC) is 3

What the record says about `COc1ccc(S(=O)(=O)N(CCO)c2ccccc2CN(C)C/C=C/c2ccc(Cl)cc2)cc1` : fold change (FC) is 6.3

The values you see were collected from ChEMBL document CHEMBL1157366.
